All figures here come from patent US9957271B2.

- measured target: UniProt Q96EB6
- experimental protocol: Trp mass spectrometry assay of SIRT1 activity
- Assay type: biochemical
- stated conditions: Trp assay; concentration giving 150% activation of SIRT1
reported property: Trp EC1.5 (μM)

The following compounds have reported results that may help.
CN(C)[C@H]1CCN(c2ccc3ncc(C(=O)Nc4cccnn4)n3n2)C1
B (EC1.5 1-25 μM)
Cc1cc(C)nc(NC(=O)c2cnn3ccc(-c4ccccc4C(F)(F)F)nc23)n1
B (EC1.5 1-25 μM)
O=C(Nc1cccnc1)c1cnc2ccc(N3CCCC3C(F)(F)F)nn12 (stereo not drawn)
A (EC1.5<1 μM)
CN(C)[C@H]1CCN(c2ccc3ncc(C(=O)Nc4ccncn4)n3n2)C1
B (EC1.5 1-25 μM)
COc1ccc(NC(=O)c2c(C)nc3ccc(-c4ccccc4C(F)(F)F)nn23)nn1
B (EC1.5 1-25 μM)
Cc1cncc(NC(=O)c2c(C)nc3c(OC[C@H](O)CO)cc(-c4ccccc4C(F)(F)F)nn23)c1
A (EC1.5<1 μM)

IN: What does the record list as Trp EC1.5 (μM) for COCCOc1cc(NC(=O)c2cnc3ccc(-c4ccccc4C(F)(F)F)nn23)ncn1 ?
OUT: B (EC1.5 1-25 μM)

IN: What do we get for Cc1cnc(NC(=O)c2cnc3ccc(-c4ccccc4OC[C@H](O)CO)nn23)s1 ?
OUT: B (EC1.5 1-25 μM)

IN: Param item: Cc1cc(NC(=O)c2cnc3ccc(-c4cccc(OC[C@H](O)CO)c4)nn23)ccn1
OUT: C (EC1.5>25 μM)

----------
- measured target: UniProtKB Q96EB6
- experimental protocol: TAMRA based mass spectrometry assay of SIRT1 activity
- Type: biochemical
- stated conditions: TAMRA peptide substrate; percent maximum fold activation; read-out: TAMRA % Fold Act
reported property: Emax

Use these answered entries as a reference point.
O=C(Nc1ccnc(N2CC3(CCO3)C2)n1)c1cnc2ccc(-c3ccccc3C(F)(F)F)nn12 [Compound 592]
≥ 350%
O=C(Nc1cccnc1)c1ncn2ccc(-c3ccccc3C(F)(F)F)nc12 [Compound 451]
≥ 350%
O=C(Nc1cnc2ccc(-c3ccccc3C(F)(F)F)nn12)c1ncc(F)cc1F [Compound 440]
≥ 350%
O=C(Nc1ccc(F)cn1)c1cnn2ccc(-c3ccccc3C(F)(F)F)nc12 [Compound 518]
≥ 350%
Cc1cc(C)nc(NC(=O)c2cnc3ccc(N4CC[C@H](N(C)C)C4)nn23)c1 [Compound 512]
< 350%
O=C(Nc1ccccn1)c1ncn2ccc(-c3ccccc3C(F)(F)F)nc12 [Compound 450]
≥ 350%

IN: Would you mind telling me what Emax value was observed for O=C(Nc1cncc(OC[C@@H](O)CO)n1)c1cnc2ccc(-c3ccccc3C(F)(F)F)nn12 [Compound 556] ?
OUT: ≥ 350%

IN: Continue with Cc1cc(NC(=O)c2cnc3ccc(-c4ccccc4C(F)(F)F)nn23)cc(OC[C@H](O)CO)n1 [Compound 557]
OUT: ≥ 350%

IN: Now consider Cc1cccc(C(=O)Nc2cnn3ccc(-c4ccccc4C(F)(F)F)nc23)n1 [Compound 522] .
OUT: ≥ 350%

IN: Please answer likewise for CN(C)[C@H]1CCN(c2ccc3ncc(C(=O)Nc4cccc(N5CCOCC5)n4)n3n2)C1 [Compound 510]
OUT: < 350%

IN: Follow-up item: Cc1nc2ccc(-c3ccccc3OC(F)(F)F)nn2c1C(=O)Nc1cnccn1 [Compound 471]
OUT: ≥ 350%

IN: What do you have for Cc1cc(C)nc(NC(=O)c2cnc3ccc(N4CCCC(C(F)(F)F)C4)nn23)c1 (centres unmarked) [Compound 579] ?
OUT: < 350%

IN: Also need Cc1cc(-c2ccccc2C(F)(F)F)nn2c(NC(=O)c3ncccn3)cnc12 [Compound 410] , thanks.
OUT: ≥ 350%

IN: And then O=C(Nc1cnn2ccc(-c3ccccc3OC(F)(F)F)nc12)c1cccnc1 [Compound 582] , what is it?
OUT: < 350%

IN: Proceed to Cc1cc(NC(=O)c2cnn3ccc(-c4ccccc4C(F)(F)F)nc23)nc(C)n1 [Compound 503]
OUT: ≥ 350%

IN: Same again, this time with Cc1nc2c(C)cc(-c3ccccc3C(F)(F)F)nn2c1C(=O)Nc1ccncc1F [Compound 473]
OUT: ≥ 350%

IN: Same again, this time with CCOc1nccc(NC(=O)c2cnc3c(C)cc(-c4ccccc4C(F)(F)F)nn23)n1 [Compound 596]
OUT: ≥ 350%

----------
- measured target: SIRT1 (Homo sapiens, UniProt Q96EB6)
- experimental protocol: TAMRA based mass spectrometry assay of SIRT1 activity
- Format: biochemical
- stated conditions: TAMRA assay; concentration giving 150% activation of SIRT1
reported property: TAMRA EC1.5 (μM)

O=C(Nc1cnc2ccc(-c3ccccc3F)nn12)c1cccc(OCC(O)CO)n1 (stereo not drawn)
B (EC1.5 1-25 μM)
Cc1cncc(NC(=O)c2cnn3ccc(-c4ccccc4OC(F)(F)F)nc23)c1
A (EC1.5<1 μM)
CCOc1n[nH]c(NC(=O)c2c(C)nc3ccc(-c4ccccc4C(F)(F)F)nn23)n1
A (EC1.5<1 μM)
CC(C)c1csc(C(=O)Nc2cnc3ccc(-c4ccccc4C(F)(F)F)nn23)n1
A (EC1.5<1 μM)
Cc1nc2ccc(-c3cccc(OC[C@H](O)CO)c3)nn2c1C(=O)Nc1ccccn1
B (EC1.5 1-25 μM)
Cc1nc(C(=O)Nc2cnc3ccc(-c4ccccc4F)nn23)c(C)s1
A (EC1.5<1 μM)
Cc1cnc(NC(=O)c2c(C)nn3ccc(-c4ccccc4C(F)(F)F)nc23)cn1
A (EC1.5<1 μM)
Cc1cnc(NC(=O)c2cnc3ccc(-c4ccccc4OC[C@H](O)CO)nn23)s1
B (EC1.5 1-25 μM)

// below: TAMRA EC1.5 (μM) requested for another compound
IN: Form field - read-out: TAMRA EC1.5 (μM); system: SIRT1 (Homo sapiens, UniProt Q96EB6); submitted item: Cc1cc(-c2ccccc2C(F)(F)F)nn2c(C(=O)Nc3cccnc3)cnc12
OUT: B (EC1.5 1-25 μM)

----------
- measured target: SIRT1 (Homo sapiens, UniProt Q96EB6)
- experimental protocol: TAMRA based mass spectrometry assay of SIRT1 activity
- Format: biochemical
- stated conditions: TAMRA assay; concentration giving 150% activation of SIRT1
reported property: TAMRA EC1.5 (μM)

COc1cc(NC(=O)c2c(C)nc3ccc(-c4ccccc4C(F)(F)F)nn23)ncn1
A (EC1.5<1 μM)
Cc1cc(NC(=O)c2cnc3ccc(-c4ccccc4OCC(O)CO)nn23)ccn1 (stereo not shown)
B (EC1.5 1-25 μM)
Cc1cc(C)nc(C(=O)Nc2cnn3ccc(-c4ccccc4C(F)(F)F)nc23)n1
A (EC1.5<1 μM)
O=C(Nc1nccs1)c1cnn2ccc(-c3ccccc3OC(F)(F)F)nc12
B (EC1.5 1-25 μM)
Cc1ncccc1NC(=O)c1c(C)nn2ccc(-c3ccccc3Br)nc12
B (EC1.5 1-25 μM)
Cc1cc(C)nc(NC(=O)c2cnc3ccc(-c4ccccc4Cl)nn23)c1
A (EC1.5<1 μM)

IN: Report TAMRA EC1.5 (μM) for O=C(Nc1cncc(OCC(O)CO)n1)c1cnc2ccc(-c3ccccc3C(F)(F)F)nn12 (stereo not shown) please.
OUT: A (EC1.5<1 μM)

----------
Reported Emax values follow for various compounds
- measured target: SIRT1 (Homo sapiens)
- Sequence (Q96EB6 1-747): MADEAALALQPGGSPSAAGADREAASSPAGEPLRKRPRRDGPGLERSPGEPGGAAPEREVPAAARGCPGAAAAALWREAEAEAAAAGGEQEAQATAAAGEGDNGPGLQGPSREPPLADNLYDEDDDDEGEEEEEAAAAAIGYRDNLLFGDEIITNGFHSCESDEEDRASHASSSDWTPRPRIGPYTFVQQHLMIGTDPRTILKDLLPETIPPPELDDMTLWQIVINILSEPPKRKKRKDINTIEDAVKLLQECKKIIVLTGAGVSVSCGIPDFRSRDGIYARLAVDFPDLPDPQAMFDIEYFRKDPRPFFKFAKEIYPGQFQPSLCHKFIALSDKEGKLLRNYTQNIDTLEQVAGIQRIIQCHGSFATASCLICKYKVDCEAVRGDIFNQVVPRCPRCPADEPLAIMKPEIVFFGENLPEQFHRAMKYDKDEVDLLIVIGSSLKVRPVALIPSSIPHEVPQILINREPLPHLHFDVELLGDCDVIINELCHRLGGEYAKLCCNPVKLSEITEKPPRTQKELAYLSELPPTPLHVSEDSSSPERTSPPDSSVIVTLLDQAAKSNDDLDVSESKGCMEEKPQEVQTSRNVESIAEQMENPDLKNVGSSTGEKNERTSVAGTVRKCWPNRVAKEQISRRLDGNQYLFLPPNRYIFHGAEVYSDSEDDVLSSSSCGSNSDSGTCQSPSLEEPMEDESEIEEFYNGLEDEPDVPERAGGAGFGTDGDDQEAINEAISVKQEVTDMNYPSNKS
- experimental protocol: TAMRA based mass spectrometry assay of SIRT1 activity
- Format: biochemical
- stated conditions: TAMRA assay; percent maximum fold activation; read-out: TAMRA % Fold Act

Example entries and their recorded answers appear below.
O=C(Nc1cnn2ccc(-c3ccccc3OC(F)(F)F)nc12)c1cccc(-n2cnnc2)n1 [Compound 769]
≥ 350%
Cc1scnc1C(=O)Nc1cnc2c(C)c(C)c(-c3ccccc3Cl)nn12 [Compound 385]
≥ 350%
O=C(Nc1cnn2ccc(-c3ccccc3C(F)(F)F)nc12)c1cncc(OC[C@@H](O)CO)n1 [Compound 783]
≥ 350%
O=C(Nc1ccc(OCC(O)CO)nc1)c1cnc2ccc(-c3ccccc3C(F)(F)F)nn12 (centres unmarked) [Compound 263]
≥ 350%
O=C(Nc1cccc(OCC(O)CO)n1)c1cnc2ccc(-c3ccccc3C(F)(F)F)nn12 (centres unmarked) [Compound 212]
≥ 350%

IN: What value of Emax has been reported for the following compound? Cc1nc2ccc(-c3cccc(OC[C@H](O)CO)c3)nn2c1C(=O)Nc1ccc(F)cn1 [Compound 821]
OUT: < 350%

IN: Please give the result for N#Cc1ccccc1-c1ccc2ncc(NC(=O)c3cscn3)n2n1 [Compound 332] too.
OUT: < 350%

IN: Cc1cc(-c2ccccc2C(F)(F)F)nn2c(C(=O)Nc3ccnc(O[C@@H]4CCOC4)n3)cnc12 [Compound 598] ?
OUT: ≥ 350%

IN: Request: Cc1ccc(NC(=O)c2cnn3ccc(-c4ccccc4C(F)(F)F)nc23)nc1 [Compound 618]
OUT: ≥ 350%

IN: Field entry: Cc1cccnc1NC(=O)c1cnn2ccc(-c3ccccc3C(F)(F)F)nc12 [Compound 653]
OUT: < 350%

IN: Another: N#Cc1ccccc1-c1ccc2ncc(C(=O)Nc3cccc(CN4CCOCC4)n3)n2n1 [Compound 202]
OUT: < 350%

IN: Param item: Cc1nc2c(OC[C@H]3COC(C)(C)O3)cc(-c3ccccc3C(F)(F)F)nn2c1C(=O)Nc1cccnn1 [Compound 745]
OUT: ≥ 350%

IN: Let us now turn to Cc1nc(NC(=O)c2cnn3ccc(-c4ccccc4OC(F)(F)F)nc23)sc1C [Compound 614]
OUT: ≥ 350%

IN: // repeat for O=C(Nc1cccnn1)c1cnc2ccc(-c3ccccc3OC(F)(F)F)nn12 [Compound 395] and report
OUT: ≥ 350%

IN: Field entry: O=C(Nc1cnn2ccc(-c3ccccc3C(F)(F)F)nc12)c1cnccn1 [Compound 253]
OUT: ≥ 350%

IN: Same again, this time with Cc1ccc(NC(=O)c2c(C)nc3ccc(-c4ccccc4C(F)(F)F)nn23)nn1 [Compound 664]
OUT: ≥ 350%

IN: How about O=C(Nc1ccc(CN2CCCC2)cn1)c1cnc2ccc(-c3ccccc3C(F)(F)F)nn12 [Compound 248] ?
OUT: ≥ 350%
